# Assay Info: in vivo
# Test Conditions: Sprague-Dawley, rat, iv, 2 mg/kg
What AUC(0-inf) was measured for each of the following?
Supply the numeric figure in ng·h/mL, leaving out any unit text.

Input line: Specify reported AUC(0-inf) for the molecule shown: CCC(CC)O[C@@H]1C=C(C(=O)O)C[C@H](NCc2ccc(OCc3cccc(B(O)O)c3)cc2Cl)[C@H]1NC(C)=O
Output line: 749

Input line: Specify reported AUC(0-inf) for the molecule shown: CCC(CC)O[C@@H]1C=C(C(=O)O)C[C@H](NCc2ccc(OCc3cccc(B(O)O)c3)cc2C)[C@H]1NC(C)=O
Output line: 1380

----------
# Assay Info: Inhibition of neuraminidase in Influenza A virus A/Babol/36/2005 H3N2 using MUNANA as substrate incubated for 40 mins by […] based assay
What pIC50 was measured for each of the following?
Keep it numeric: pIC50 is minus log10 of the concentration in mol/L.

Input line: Specify reported pIC50 for the molecule shown: CCC(CC)O[C@@H]1C=C(C(=O)O)C[C@H](NCc2ccc(Oc3cccc(B(O)O)c3)cc2)[C@H]1NC(C)=O
Output line: 6.12

Input line: Specify reported pIC50 for the molecule shown: CCC(CC)O[C@@H]1C=C(C(=O)O)C[C@H](NCc2ccc(OCc3cccc(B(O)O)c3)cc2OC)[C@H]1NC(C)=O
Output line: 6.02

Input line: Specify reported pIC50 for the molecule shown: CCC(CC)O[C@@H]1C=C(C(=O)O)C[C@H](NCc2ccc(OCc3ccc(B(O)O)cc3)cc2OC)[C@H]1NC(C)=O
Output line: 6.29

Input line: Specify reported pIC50 for the molecule shown: CCC(CC)O[C@@H]1C=C(C(=O)O)C[C@H](NCc2ccc(OCc3cccc(B(O)O)c3)c(C)c2)[C@H]1NC(C)=O
Output line: 4.94

----------
# Tested on: Influenza A virus
# Assay Info: microbe, parasite or virus in culture
# Test Conditions: A/Goose/Jiangsu/1306/2014 H5N8, CEF, 48 h
Quantity: pEC50
Keep it numeric: pEC50 is minus log10 of the concentration in mol/L.

Input line: Specify reported pEC50 for the compound shown: CCC(CC)O[C@@H]1C=C(C(=O)O)C[C@H](NCc2ccc(OCc3ccc(B(O)O)cc3)cc2C)[C@H]1NC(C)=O
Output line: 5.45

Input line: Specify reported pEC50 for the compound shown: CCC(CC)O[C@@H]1C=C(C(=O)O)C[C@H](NCc2ccc(OCc3cccc(B(O)O)c3)cc2C)[C@H]1NC(C)=O
Output line: 5.90

Input line: Specify reported pEC50 for the compound shown: CCC(CC)O[C@@H]1C=C(C(=O)O)C[C@H](NCc2ccc(OCc3cccc(B(O)O)c3)cc2F)[C@H]1NC(C)=O
Output line: 5.16

Input line: Specify reported pEC50 for the compound shown: CCC(CC)O[C@@H]1C=C(C(=O)O)C[C@H](NCc2ccc(OCc3cccc(B(O)O)c3)cc2Cl)[C@H]1NC(C)=O
Output line: 5.49

Input line: Specify reported pEC50 for the compound shown: CCC(CC)O[C@@H]1C=C(C(=O)O)C[C@H](NCc2c(C)cc(OCc3cccc(B(O)O)c3)cc2C)[C@H]1NC(C)=O
Output line: 5.04

Input line: Specify reported pEC50 for the compound shown: CCC(CC)O[C@@H]1C=C(C(=O)O)C[C@H](N)[C@H]1NC(C)=O [OSELTAMIVIR CARBOXYLATE]
Output line: 5.06

Input line: Specify reported pEC50 for the compound shown: CCC(CC)O[C@@H]1C=C(C(=O)O)C[C@H](NCc2ccc(OCc3ccc(B(O)O)cc3)cc2F)[C@H]1NC(C)=O
Output line: 5.40

----------
# Assay Info: Inhibition of neuraminidase in Influenza A virus A/Babol/36/2005 H3N2 using MUNANA as substrate incubated for 40 mins by […] based assay
What pIC50 was measured for each of the following?
Keep it numeric: pIC50 is minus log10 of the concentration in mol/L.

Input line: Specify reported pIC50 for the compound shown: CCC(CC)O[C@@H]1C=C(C(=O)O)C[C@H](NCc2cc(C)c(OCc3cccc(B(O)O)c3)c(C)c2)[C@H]1NC(C)=O
Output line: 5.06

Input line: Specify reported pIC50 for the compound shown: CCC(CC)O[C@@H]1C=C(C(=O)O)C[C@H](NCc2cccc(OCc3cccc(B(O)O)c3)c2)[C@H]1NC(C)=O
Output line: 5.36

Input line: Specify reported pIC50 for the compound shown: CC(=O)N[C@H]1[C@H]([C@H](O)[C@H](O)CO)OC(C(=O)O)=C[C@@H]1NC(=N)N [ZANAMIVIR]
Output line: 7.42

Input line: Specify reported pIC50 for the compound shown: CCC(CC)O[C@@H]1C=C(C(=O)O)C[C@H](NCc2ccc(OCc3cccc(B(O)O)c3)cc2C)[C@H]1NC(C)=O
Output line: 6.33

Input line: Specify reported pIC50 for the compound shown: CCC(CC)O[C@@H]1C=C(C(=O)O)C[C@H](NCc2ccc(OCc3cccc(B(O)O)c3)cc2Cl)[C@H]1NC(C)=O
Output line: 6.59

Input line: Specify reported pIC50 for the compound shown: CCC(CC)O[C@@H]1C=C(C(=O)O)C[C@H](NCc2cccc(OCc3ccc(B(O)O)cc3)c2)[C@H]1NC(C)=O
Output line: 5.48

Input line: Specify reported pIC50 for the compound shown: CCC(CC)O[C@@H]1C=C(C(=O)O)C[C@H](NCc2ccc(C(=O)Nc3cccc(B(O)O)c3)cc2)[C@H]1NC(C)=O
Output line: 4.77

Input line: Specify reported pIC50 for the compound shown: CCC(CC)O[C@@H]1C=C(C(=O)O)C[C@H](NCc2ccc(OCc3cccc(B(O)O)c3)cc2Br)[C@H]1NC(C)=O
Output line: 6.33

Input line: Specify reported pIC50 for the compound shown: CCC(CC)O[C@@H]1C=C(C(=O)O)C[C@H](NCc2cc(C)c(OCc3ccc(B(O)O)cc3)c(C)c2)[C@H]1NC(C)=O
Output line: 4.38

Input line: Specify reported pIC50 for the compound shown: CCC(CC)O[C@@H]1C=C(C(=O)O)C[C@H](NCc2ccc(OCc3ccc(B(O)O)cc3)c(F)c2)[C@H]1NC(C)=O
Output line: 6.19

Input line: Specify reported pIC50 for the compound shown: CCC(CC)O[C@@H]1C=C(C(=O)O)C[C@H](NCc2ccc(OCc3cccc(B(O)O)c3)c(B(O)O)c2)[C@H]1NC(C)=O
Output line: 5.75

Input line: Specify reported pIC50 for the compound shown: CCC(CC)O[C@@H]1C=C(C(=O)O)C[C@H](NCc2ccc(OCc3ccc(B(O)O)cc3)c(OC)c2)[C@H]1NC(C)=O
Output line: 4.54

Input line: Specify reported pIC50 for the compound shown: CCC(CC)O[C@@H]1C=C(C(=O)O)C[C@H](NCc2ccc(-c3cccs3)cc2OC)[C@H]1NC(C)=O
Output line: 5.68

Input line: Specify reported pIC50 for the compound shown: CCC(CC)O[C@@H]1C=C(C(=O)O)C[C@H](NCc2ccc(OCc3ccc(B(O)O)cc3)cc2F)[C@H]1NC(C)=O
Output line: 6.40

Input line: Specify reported pIC50 for the compound shown: CCC(CC)O[C@@H]1C=C(C(=O)O)C[C@H](N)[C@H]1NC(C)=O [OSELTAMIVIR CARBOXYLATE]
Output line: 8.05

Input line: Specify reported pIC50 for the compound shown: CCC(CC)O[C@@H]1C=C(C(=O)O)C[C@H](NCc2ccc(OCc3cccc(B(O)O)c3)cc2F)[C@H]1NC(C)=O
Output line: 5.84

Input line: Specify reported pIC50 for the compound shown: CCC(CC)O[C@@H]1C=C(C(=O)O)C[C@H](NCc2ccc(Oc3ccc(B(O)O)cc3)cc2)[C@H]1NC(C)=O
Output line: 5.84

Input line: Specify reported pIC50 for the compound shown: CCC(CC)O[C@@H]1C=C(C(=O)O)C[C@H](NCc2ccc(-c3ccsc3)cc2OC)[C@H]1NC(C)=O
Output line: 5.07

Input line: Specify reported pIC50 for the compound shown: CCC(CC)O[C@@H]1C=C(C(=O)O)C[C@H](NCc2cccc(C(=O)Nc3cccc(B(O)O)c3)c2)[C@H]1NC(C)=O
Output line: 6.64

Input line: Specify reported pIC50 for the compound shown: CCC(CC)O[C@@H]1C=C(C(=O)O)C[C@H](NCc2ccc(OCc3cccc(B(O)O)c3)c(F)c2)[C@H]1NC(C)=O
Output line: 5.74

Input line: Specify reported pIC50 for the compound shown: CCC(CC)O[C@@H]1C=C(C(=O)O)C[C@H](NCc2ccc(C(=O)Nc3ccc(B(O)O)cc3)cc2)[C@H]1NC(C)=O
Output line: 5.79

Input line: Specify reported pIC50 for the compound shown: CCC(CC)O[C@@H]1C=C(C(=O)O)C[C@H](NCc2c(C)cc(OCc3ccc(B(O)O)cc3)cc2C)[C@H]1NC(C)=O
Output line: 6.13

Input line: Specify reported pIC50 for the compound shown: CCC(CC)O[C@@H]1C=C(C(=O)O)C[C@H](NCc2ccc(OCc3ccc(B(O)O)cc3)c(C)c2)[C@H]1NC(C)=O
Output line: 4.78

Input line: Specify reported pIC50 for the compound shown: CCC(CC)O[C@@H]1C=C(C(=O)O)C[C@H](NCc2ccc(OCc3cccc(B(O)O)c3)c(Br)c2)[C@H]1NC(C)=O
Output line: 4.85

Input line: Specify reported pIC50 for the compound shown: CCC(CC)O[C@@H]1C=C(C(=O)O)C[C@H](NCc2ccccc2OCc2ccc(B(O)O)cc2)[C@H]1NC(C)=O
Output line: 5.07

Input line: Specify reported pIC50 for the compound shown: CCC(CC)O[C@@H]1C=C(C(=O)O)C[C@H](NCc2ccc(OCc3cccc(B(O)O)c3)c(Cl)c2)[C@H]1NC(C)=O
Output line: 5.18

Input line: Specify reported pIC50 for the compound shown: CCC(CC)O[C@@H]1C=C(C(=O)O)C[C@H](NCc2ccc(OCc3ccc(B(O)O)cc3)cc2Cl)[C@H]1NC(C)=O
Output line: 6.92

Input line: Specify reported pIC50 for the compound shown: CCC(CC)O[C@@H]1C=C(C(=O)O)C[C@H](NCc2cccc(C(=O)Nc3ccc(B(O)O)cc3)c2)[C@H]1NC(C)=O
Output line: 5.18

Input line: Specify reported pIC50 for the compound shown: CCC(CC)O[C@@H]1C=C(C(=O)O)C[C@H](NCc2ccc(OCc3ccc(B(O)O)cc3)cc2Br)[C@H]1NC(C)=O
Output line: 6.47

Input line: Specify reported pIC50 for the compound shown: CCC(CC)O[C@@H]1C=C(C(=O)O)C[C@H](NCc2ccc(OCc3cccc(B(O)O)c3)c(OC)c2)[C@H]1NC(C)=O
Output line: 4.63

Input line: Specify reported pIC50 for the compound shown: CCC(CC)O[C@@H]1C=C(C(=O)O)C[C@H](NCc2ccc(OCc3ccc(B(O)O)cc3)c(Br)c2)[C@H]1NC(C)=O
Output line: 4.77

Input line: Specify reported pIC50 for the compound shown: CCC(CC)O[C@@H]1C=C(C(=O)O)C[C@H](NCc2ccc(OCc3ccc(B(O)O)cc3)c(Cl)c2)[C@H]1NC(C)=O
Output line: 5.14
